molecular target: T1, PSMA Fab; assay: clonal phage ELISA on captured PSMA Fab pre-incubated with PSMA antigen as competitor, anti-M13 HRP detection;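 note: crude clonal phage supernatants tested by ELISA, wells first treated with blocking buffer plus PSMA antigen, bound phage read out via HRP-linked anti-M13 antibody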
T1 construct: also called Anti-PSMA Fab; 006 PSMA Fab
Where no end group is shown, it is not given here.
OBSERVATION_TYPE: phage binding ELISA signal (Anti-PSMA Fab, PSMA antigen present)
// no unit string in output, number only

Qu. Output phage binding ELISA signal (Anti-PSMA Fab, PSMA antigen present) of HLPRCEPAWMCHGF (cysteine pairing not given here; also: fused to phage pIII, orientation and linker not given here, Clonal phage of the Peptide-180 library, tested as crude supernatant; not shown: fused to pIII of the bacteriophage) [Phage-3144]
Ans. 0.0904

Qu. Output phage binding ELISA signal (Anti-PSMA Fab, PSMA antigen present) of DAPLCKPQWMCSGF (cysteine pairing not given here; also: fused to phage pIII, orientation and linker not given here, Clonal phage of the Peptide-180 library, tested as crude supernatant; not shown: fused to pIII of the bacteriophage) [Phage-3150]
Ans. 0.0854
